biological target: Fyn (UniProt P06241); experiment: phosphorylation enrichment, bacterial display (enrichment ratio); higher = better substrate or ligand; peptides without Tyr show the background
Sequence (P06241 whole entry, looked up): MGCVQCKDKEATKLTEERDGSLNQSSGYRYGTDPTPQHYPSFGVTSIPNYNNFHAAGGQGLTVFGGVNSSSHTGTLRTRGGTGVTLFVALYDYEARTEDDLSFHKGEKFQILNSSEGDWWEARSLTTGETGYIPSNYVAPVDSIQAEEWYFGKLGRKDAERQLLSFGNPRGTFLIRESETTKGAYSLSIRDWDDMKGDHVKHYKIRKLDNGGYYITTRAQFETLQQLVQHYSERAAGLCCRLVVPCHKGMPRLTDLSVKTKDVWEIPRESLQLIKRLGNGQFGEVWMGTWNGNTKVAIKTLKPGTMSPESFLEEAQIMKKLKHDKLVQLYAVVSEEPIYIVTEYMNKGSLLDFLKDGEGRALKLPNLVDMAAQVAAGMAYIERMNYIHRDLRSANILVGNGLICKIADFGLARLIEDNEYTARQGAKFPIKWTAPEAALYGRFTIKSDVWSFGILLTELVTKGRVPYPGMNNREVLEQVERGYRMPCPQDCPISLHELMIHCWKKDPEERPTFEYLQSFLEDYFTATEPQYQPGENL
Recorded phosphorylation enrichment determines the group label, using bucket A = under 0.4, bucket B = from 0.4 up to 0.5, bucket C = 0.5 and over

Incoming: Consider VLNDAYENLTR [SYNE2_Y3255] . To which phosphorylation enrichment class does it belong?
Outgoing: bucket C

Incoming: Consider TAALWYIYLHT [ENG_Y612_S615L] . To which phosphorylation enrichment class does it belong?
Outgoing: bucket C

Incoming: Consider WASQRYGRELR [BAD_Y110_A107S] . To which phosphorylation enrichment class does it belong?
Outgoing: bucket C

Incoming: Consider DPHQQYYIAMD [TBX15_Y159] . To which phosphorylation enrichment class does it belong?
Outgoing: bucket C

Incoming: Consider VGQRPYQPLPE [REEP3_Y170] . To which phosphorylation enrichment class does it belong?
Outgoing: bucket A

Incoming: Consider WQQQSYLDSGI [CTNNB1_Y30] . To which phosphorylation enrichment class does it belong?
Outgoing: bucket A

Incoming: Consider SRGRQYQELPR [KCNH2_Y1009] . To which phosphorylation enrichment class does it belong?
Outgoing: bucket A

Incoming: Consider CTTIHYNFTCN [TP53_Y234_M237T_YF] . To which phosphorylation enrichment class does it belong?
Outgoing: bucket B

Incoming: Consider RRIHRYRGHLW [VHL_Y112_S111R] . To which phosphorylation enrichment class does it belong?
Outgoing: bucket B

Incoming: Consider TRYDEYLEVTK [MAP1A_Y2217_H2214Y] . To which phosphorylation enrichment class does it belong?
Outgoing: bucket C

Incoming: Consider RLRKFYLGKFL [KLB_Y906_YF] . To which phosphorylation enrichment class does it belong?
Outgoing: bucket C

Incoming: Consider TGEDWYVLVRV [SF3B3_Y904_G908R] . To which phosphorylation enrichment class does it belong?
Outgoing: bucket B

Incoming: Consider CSRHFYQLTKL [AR_Y858_R856H] . To which phosphorylation enrichment class does it belong?
Outgoing: bucket B

Incoming: Consider DNEALYDICFR [TUBB2B_Y208] . To which phosphorylation enrichment class does it belong?
Outgoing: bucket C

Incoming: Consider VDESLYKTHPQ [HK1_Y417_G414E] . To which phosphorylation enrichment class does it belong?
Outgoing: bucket C

Incoming: Consider IIGNGYFFRVF [MYBPC3_Y1135_YF] . To which phosphorylation enrichment class does it belong?
Outgoing: bucket A

Incoming: Consider IKGIRYLHHQG [GUCY2D_Y656_R660Q] . To which phosphorylation enrichment class does it belong?
Outgoing: bucket A

Incoming: Consider TTEHIYGDKFF [UBA7_Y524_N527K] . To which phosphorylation enrichment class does it belong?
Outgoing: bucket C

Incoming: Consider PSVVAYPKRSQ [MARK3_Y432] . To which phosphorylation enrichment class does it belong?
Outgoing: bucket C

Incoming: Consider MTFQNYRQALF [FAM20C_Y279_G280R] . To which phosphorylation enrichment class does it belong?
Outgoing: bucket C

Incoming: Consider FIRRDYEACKA [BBS4_Y48_K46R_YF] . To which phosphorylation enrichment class does it belong?
Outgoing: bucket C

###

molecular target: Grb2 SH2 (UniProt P62993); test: SH2 binding enrichment of the phosphorylated peptide, bacterial display (enrichment ratio); higher = better substrate or ligand; peptides without Tyr show the background
Sequence (P62993 whole entry, looked up): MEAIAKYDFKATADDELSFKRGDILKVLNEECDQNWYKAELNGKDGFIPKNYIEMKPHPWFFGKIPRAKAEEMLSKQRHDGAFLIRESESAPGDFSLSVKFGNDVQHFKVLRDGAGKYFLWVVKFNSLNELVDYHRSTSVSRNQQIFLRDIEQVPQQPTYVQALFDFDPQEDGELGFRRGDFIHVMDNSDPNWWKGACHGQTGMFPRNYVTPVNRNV
Metric Name: SH2 binding enrichment
Write no unit; give the number alone.

Incoming: What does the record list as SH2 binding enrichment for IGCHAYGDQYR [IDH1_Y135_R132C] ?
Outgoing: 0.687

Incoming: What does the record list as SH2 binding enrichment for EWKQKYEESQS [MYH6_Y1462] ?
Outgoing: 0.897

Incoming: What does the record list as SH2 binding enrichment for PTTKTYFPHFG [HBA1_Y43_D48G] ?
Outgoing: 1.06

Incoming: What does the record list as SH2 binding enrichment for KIKLNYTLPQD [NRAP_Y523_N519I] ?
Outgoing: 0.965

Incoming: What does the record list as SH2 binding enrichment for TTSQLYDAVPI [PDPK1_Y9] ?
Outgoing: 0.728

Incoming: What does the record list as SH2 binding enrichment for PFTRNYYVQAV [CYBA_Y87_R90Q] ?
Outgoing: 0.981

Incoming: What does the record list as SH2 binding enrichment for ALAPKYHGGGG [HBB_Y146_H144P] ?
Outgoing: 0.607

###

system: Fer (mouse); assay: phosphorylation enrichment, bacterial display (enrichment ratio); higher = better substrate or ligand; peptides without Tyr show the background
Metric Name: phosphorylation enrichment
Write no unit; give the number alone.

Incoming: What does the record list as phosphorylation enrichment for VITDFYVDMKF [MPP4_Y567_YF] ?
Outgoing: 0.925

Incoming: What does the record list as phosphorylation enrichment for HSDYQYGQRSQ [PKP2_Y168_S169G] ?
Outgoing: 0.478

Incoming: What does the record list as phosphorylation enrichment for ETDSEYVKLAK [C7orf57_Y70] ?
Outgoing: 0.335

Incoming: What does the record list as phosphorylation enrichment for ETKAFYPEEIS [HSPA1A_Y115] ?
Outgoing: 0.537

Incoming: What does the record list as phosphorylation enrichment for FIRRDYEACKA [BBS4_Y48_K46R_YF] ?
Outgoing: 0.434

Incoming: What does the record list as phosphorylation enrichment for RNYDTYTAGLS [RHBDD1_Y264] ?
Outgoing: 0.707

Incoming: What does the record list as phosphorylation enrichment for FSEVRYVKEPY [HIPK4_Y170] ?
Outgoing: 0.404

Incoming: What does the record list as phosphorylation enrichment for RDWSLYFKIIE [KRT18_Y129_H128L] ?
Outgoing: 0.464

Incoming: What does the record list as phosphorylation enrichment for SMAKFYASEIA [ACADSB_Y373_YF] ?
Outgoing: 0.61

Incoming: What does the record list as phosphorylation enrichment for RGFRVCFTPDS [PTPRF_Y450_Y450C_YF] ?
Outgoing: 0.635

Incoming: What does the record list as phosphorylation enrichment for KAIMIYVSSFY [ACTN4_Y260_T259I] ?
Outgoing: 0.422

Incoming: What does the record list as phosphorylation enrichment for VEDDMYRKTCT [XPA_Y257_L252V] ?
Outgoing: 0.696

Incoming: What does the record list as phosphorylation enrichment for KSPDSYQKILF [ATM_Y1415_L1420F] ?
Outgoing: 0.338

Incoming: What does the record list as phosphorylation enrichment for PLDGESFTLQI [TP53_Y327_Y327S] ?
Outgoing: 0.552

Incoming: What does the record list as phosphorylation enrichment for AQADIYKANFQ [IKBKG_Y308_D311N] ?
Outgoing: 0.461

Incoming: What does the record list as phosphorylation enrichment for PSNTDYPGPHS [TP63_Y171] ?
Outgoing: 0.582

Incoming: What does the record list as phosphorylation enrichment for FCIDHYLGKEM [G6PD_Y202_R198C_YF] ?
Outgoing: 0.633

Incoming: What does the record list as phosphorylation enrichment for ADKAAYLQSLN [MYH2_Y389] ?
Outgoing: 0.539

Incoming: What does the record list as phosphorylation enrichment for RKLASYQSCLL [DHX37_Y1080_R1081Q] ?
Outgoing: 0.555

Incoming: What does the record list as phosphorylation enrichment for LFEDHYLLGTS [ASS1_Y87_R86H_YF] ?
Outgoing: 0.569

Incoming: What does the record list as phosphorylation enrichment for LISVSYDDWDF [GRIN2A_Y281_YF] ?
Outgoing: 19.4

Incoming: What does the record list as phosphorylation enrichment for LHAAAYRNALA [UQCRC2_Y182] ?
Outgoing: 0.33

Incoming: What does the record list as phosphorylation enrichment for NTQRPYYKGGG [TYROBP_Y111] ?
Outgoing: 0.411

Incoming: What does the record list as phosphorylation enrichment for KEGSAYGSQSV [NFKB2_Y868_D865G] ?
Outgoing: 0.423

Incoming: What does the record list as phosphorylation enrichment for IKELTYQMEED [MYH7_Y1852_T1854M] ?
Outgoing: 0.495

Incoming: What does the record list as phosphorylation enrichment for FEGAIYRKDVG [GART_Y417] ?
Outgoing: 0.662

Incoming: What does the record list as phosphorylation enrichment for QMQAAYQKVVA [HBD_Y131] ?
Outgoing: 0.519

Incoming: What does the record list as phosphorylation enrichment for FPCSVYMPDEW [INSR_Y1011_V1012M] ?
Outgoing: 0.512

Incoming: What does the record list as phosphorylation enrichment for ADARMCGVLPW [PLP1_Y207_Y207C] ?
Outgoing: 0.44

###

biological target: Fes (UniProt P07332); test: phosphorylation enrichment, bacterial display (enrichment ratio); higher = better substrate or ligand; peptides without Tyr show the background
Sequence (P07332 whole entry, looked up): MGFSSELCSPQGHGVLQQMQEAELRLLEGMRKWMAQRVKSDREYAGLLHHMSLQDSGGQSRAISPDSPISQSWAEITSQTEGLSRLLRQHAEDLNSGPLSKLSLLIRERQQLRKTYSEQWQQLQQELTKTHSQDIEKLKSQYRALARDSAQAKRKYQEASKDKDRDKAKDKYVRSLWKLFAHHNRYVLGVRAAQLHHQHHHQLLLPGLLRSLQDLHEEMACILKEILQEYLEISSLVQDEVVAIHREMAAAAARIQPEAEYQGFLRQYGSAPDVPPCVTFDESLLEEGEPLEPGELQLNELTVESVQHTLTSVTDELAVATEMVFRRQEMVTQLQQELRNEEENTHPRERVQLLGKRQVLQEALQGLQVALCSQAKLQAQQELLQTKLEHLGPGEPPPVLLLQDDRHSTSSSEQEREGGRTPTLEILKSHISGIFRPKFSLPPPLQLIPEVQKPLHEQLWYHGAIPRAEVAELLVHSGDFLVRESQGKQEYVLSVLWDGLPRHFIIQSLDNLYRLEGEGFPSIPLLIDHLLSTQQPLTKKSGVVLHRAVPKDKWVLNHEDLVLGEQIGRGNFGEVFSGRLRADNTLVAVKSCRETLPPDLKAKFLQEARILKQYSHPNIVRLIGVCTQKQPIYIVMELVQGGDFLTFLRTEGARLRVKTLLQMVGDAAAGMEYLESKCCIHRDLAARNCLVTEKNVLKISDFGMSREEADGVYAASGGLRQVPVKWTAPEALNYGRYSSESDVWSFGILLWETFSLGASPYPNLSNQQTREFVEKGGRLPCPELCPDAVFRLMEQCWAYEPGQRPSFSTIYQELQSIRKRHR
Recorded phosphorylation enrichment determines the group label, using label 0: < 0.8; label 1: ≥ 0.8 and < 1; label 2: ≥ 1

Incoming: Consider `STKELYEKYMI` . To which phosphorylation enrichment class does it belong?
Outgoing: label 1

Incoming: Consider RLRKFYLGKFL [KLB_Y906_YF] . To which phosphorylation enrichment class does it belong?
Outgoing: label 0

Incoming: Consider HKLSFCEFDFE [BTK_Y40_Y40C_YF] . To which phosphorylation enrichment class does it belong?
Outgoing: label 2

Incoming: Consider IDDNQYAYLKA [HNF4A_Y286_E285Q] . To which phosphorylation enrichment class does it belong?
Outgoing: label 1

Incoming: Consider GITVAYTIPKK [UBA5_Y372] . To which phosphorylation enrichment class does it belong?
Outgoing: label 0

Incoming: Consider PELINYQQHNS [BTK_Y361_H362Q] . To which phosphorylation enrichment class does it belong?
Outgoing: label 2

Incoming: Consider NDQANYLLNTD [ADA_Y290_S291L] . To which phosphorylation enrichment class does it belong?
Outgoing: label 1

Incoming: Consider FPCSVYMPDEW [INSR_Y1011_V1012M] . To which phosphorylation enrichment class does it belong?
Outgoing: label 2

Incoming: Consider MSYDRYMAICH [OR2A5_Y123] . To which phosphorylation enrichment class does it belong?
Outgoing: label 2

Incoming: Consider RGKDNYETSQL [SPP1_Y225_S224N] . To which phosphorylation enrichment class does it belong?
Outgoing: label 0

Incoming: Consider PARLEYYENEK [IRS1_Y46] . To which phosphorylation enrichment class does it belong?
Outgoing: label 2

Incoming: Consider VSLEAYCKHKF [RXRA_Y403_A398V_YF] . To which phosphorylation enrichment class does it belong?
Outgoing: label 2

Incoming: Consider PSNTDYPGPHS [TP63_Y171] . To which phosphorylation enrichment class does it belong?
Outgoing: label 1

Incoming: Consider LPEENYQVLCF [ARHGAP1_Y365_R369C] . To which phosphorylation enrichment class does it belong?
Outgoing: label 2

Incoming: Consider VGSIKYLKREW [KCNMA1_Y885_E884K] . To which phosphorylation enrichment class does it belong?
Outgoing: label 0

Incoming: Consider EHLNRYISDTF [TTLL10_Y446] . To which phosphorylation enrichment class does it belong?
Outgoing: label 0

Incoming: Consider LQRCKYSHMEP [TEX45_Y434] . To which phosphorylation enrichment class does it belong?
Outgoing: label 2

Incoming: Consider SETSRYLSELF [KCNJ3_Y67_D70E] . To which phosphorylation enrichment class does it belong?
Outgoing: label 1

Incoming: Consider VCDSNYSASRW [LRP5_Y1552_D1551N] . To which phosphorylation enrichment class does it belong?
Outgoing: label 1

Incoming: Consider HLVSEYQQYQD [TUBB3_Y422_D417H] . To which phosphorylation enrichment class does it belong?
Outgoing: label 2

Incoming: Consider TTEHIYGDKFF [UBA7_Y524_N527K] . To which phosphorylation enrichment class does it belong?
Outgoing: label 0

Incoming: Consider GSTLSYFGLAA [P2RX7_Y343] . To which phosphorylation enrichment class does it belong?
Outgoing: label 2

Incoming: Consider QKLPLYILENN [VPS13B_Y2774_S2773L] . To which phosphorylation enrichment class does it belong?
Outgoing: label 2

Incoming: Consider KRAAIYNPVIF [RHO_Y301_S297R_YF] . To which phosphorylation enrichment class does it belong?
Outgoing: label 1

Incoming: Consider YSKDNYKRVTG [PANK2_Y405] . To which phosphorylation enrichment class does it belong?
Outgoing: label 0

Incoming: Consider QDDYSYPSRQM [LDLR_Y847_G844D] . To which phosphorylation enrichment class does it belong?
Outgoing: label 2

Incoming: Consider VASSLYDILAR [GLB1_Y294] . To which phosphorylation enrichment class does it belong?
Outgoing: label 2

Incoming: Consider FIGRIYLYLTK [GARS1_Y414] . To which phosphorylation enrichment class does it belong?
Outgoing: label 2

Incoming: Consider FRVAGYETQGG [TIA1_Y383_YF] . To which phosphorylation enrichment class does it belong?
Outgoing: label 1
